- system name: T1, human Trop2 on cells (human, UniProt P09758 27-323)
- T1 construct: whole, on cells; also called hTrop2; 293T-human Trop2 cells
- T1 sequence (looked up): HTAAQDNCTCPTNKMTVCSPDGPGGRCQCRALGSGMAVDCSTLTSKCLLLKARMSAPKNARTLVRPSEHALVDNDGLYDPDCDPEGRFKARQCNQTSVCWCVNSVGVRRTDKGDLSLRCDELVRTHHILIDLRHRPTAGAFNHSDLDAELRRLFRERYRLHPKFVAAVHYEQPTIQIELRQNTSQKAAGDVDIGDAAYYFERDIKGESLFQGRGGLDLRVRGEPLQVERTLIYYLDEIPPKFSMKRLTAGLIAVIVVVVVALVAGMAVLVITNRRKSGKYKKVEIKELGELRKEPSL
- procedure details: flow cytometry on 293T-human Trop2 cells
quantity measured: Top % (%)

binder="PR001160 (antibody, human IgG1, kappa, V domains shown, fully human IgG1/kappa; also called antibody No. (22)) VH: QVQLVESGGGVVQPGRSLRLSCEASGFTFSHYGMHWVRQAPGKGLEWVAVIWYDGIMKNYIESVKGRFTISRDNSKNTLYLQMNRLRAEDTAVYYCARDGGFGELNYYGLDVWGQGTTVTVSS VL: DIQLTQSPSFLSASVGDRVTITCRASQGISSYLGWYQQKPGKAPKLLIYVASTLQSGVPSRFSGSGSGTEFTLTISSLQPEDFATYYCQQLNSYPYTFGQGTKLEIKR" measure_unit=% measured_value=104
binder="PR001158 (antibody, human IgG1, kappa, V domains shown, fully human IgG1/kappa; also called antibody No. (20)) VH: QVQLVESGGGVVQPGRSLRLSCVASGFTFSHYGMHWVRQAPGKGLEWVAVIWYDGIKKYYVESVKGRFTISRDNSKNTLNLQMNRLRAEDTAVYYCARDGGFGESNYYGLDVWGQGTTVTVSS VL: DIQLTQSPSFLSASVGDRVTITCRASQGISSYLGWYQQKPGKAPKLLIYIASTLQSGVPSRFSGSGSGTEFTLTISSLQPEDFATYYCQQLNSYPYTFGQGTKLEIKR" measure_unit=% measured_value=107
binder="PR001162 (antibody, human IgG1, kappa, V domains shown, fully human IgG1/kappa; also called antibody No. (23)) VH: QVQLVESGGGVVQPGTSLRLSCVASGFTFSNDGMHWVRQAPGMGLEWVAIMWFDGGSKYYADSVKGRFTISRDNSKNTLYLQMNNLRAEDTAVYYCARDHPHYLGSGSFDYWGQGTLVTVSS VL: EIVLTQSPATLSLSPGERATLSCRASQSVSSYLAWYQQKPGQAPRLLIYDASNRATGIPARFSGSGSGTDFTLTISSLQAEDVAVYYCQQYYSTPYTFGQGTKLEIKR" measure_unit=% measured_value=90.2
binder="PR001168 (antibody, human IgG1, kappa, V domains shown, fully human IgG1/kappa; also called antibody No. (28)) VH: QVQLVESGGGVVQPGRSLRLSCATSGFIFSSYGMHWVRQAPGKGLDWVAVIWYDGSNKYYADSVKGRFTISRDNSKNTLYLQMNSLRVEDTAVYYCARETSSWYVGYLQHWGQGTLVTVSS VL: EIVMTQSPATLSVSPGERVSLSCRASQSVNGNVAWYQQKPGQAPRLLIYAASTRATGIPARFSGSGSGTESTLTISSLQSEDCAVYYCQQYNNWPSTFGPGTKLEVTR" measure_unit=% measured_value=105
binder="PR001134 (antibody, human IgG1, kappa, V domains shown, fully human IgG1/kappa; also called antibody No. (6)) VH: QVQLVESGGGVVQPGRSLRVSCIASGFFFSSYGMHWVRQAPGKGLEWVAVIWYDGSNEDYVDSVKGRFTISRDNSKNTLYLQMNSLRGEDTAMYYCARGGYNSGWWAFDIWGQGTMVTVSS VL: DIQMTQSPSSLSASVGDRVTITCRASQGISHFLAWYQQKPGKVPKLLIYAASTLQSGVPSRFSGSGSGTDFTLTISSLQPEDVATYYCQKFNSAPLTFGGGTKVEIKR" measure_unit=% measured_value=93.2
binder="PR001171 (antibody, human IgG1, kappa, V domains shown, fully human IgG1/kappa; also called antibody No. (30)) VH: QVQLVESGGGVVQPGRSLRLSCAASGFTFSHYGMHWVRQAPGKGLEWVAVIWYDGIKKNYVESVKGRFTISRDNSKNTLNLQMNRLRAEDTAVYYCARDGGFGESNYYGLDVWGQGTTVTVSS VL: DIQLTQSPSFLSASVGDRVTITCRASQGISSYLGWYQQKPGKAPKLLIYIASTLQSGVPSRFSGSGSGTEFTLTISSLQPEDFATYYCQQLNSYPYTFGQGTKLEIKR" measure_unit=% measured_value=102
binder="PR001133 (antibody, human IgG1, kappa, V domains shown, fully human IgG1/kappa; also called antibody No. (5)) VH: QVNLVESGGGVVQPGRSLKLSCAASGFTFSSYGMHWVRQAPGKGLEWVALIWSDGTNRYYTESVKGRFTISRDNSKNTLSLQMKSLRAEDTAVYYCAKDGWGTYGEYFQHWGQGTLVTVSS VL: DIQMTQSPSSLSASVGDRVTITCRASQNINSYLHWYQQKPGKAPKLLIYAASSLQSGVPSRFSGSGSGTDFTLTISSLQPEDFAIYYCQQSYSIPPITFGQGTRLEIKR" measure_unit=% measured_value=111
binder="PR001156 (antibody, human IgG1, kappa, V domains shown, fully human IgG1/kappa; also called antibody No. (19)) VH: QVQLVESGGGVVQPGRSLRLSCEGSGFTFSHYGMHWVRQAPGKGLEWVAVIWYDGIKKNYVDSLKGRFTISRDNSKNTLYLQMNSLRAEDTAVYYCARDGGFGELNYYGMDVWGQGTTVTVSS VL: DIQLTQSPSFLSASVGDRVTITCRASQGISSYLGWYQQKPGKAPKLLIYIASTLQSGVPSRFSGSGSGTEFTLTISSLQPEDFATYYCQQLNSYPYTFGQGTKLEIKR" measure_unit=% measured_value=112
binder="PR001151 (antibody, human IgG1, kappa, V domains shown, fully human IgG1/kappa; also called antibody No. (14)) VH: QVQLVESGGGVVQPGRSLRLSCAASGFTFSHYGMHWVRQAPGKGLEWVAVIWYDGIKKDYVESVKGRFTISRDNSKNTLYLQMNRLRAEDTAVYYCARDGGFGELNYYGLDVWGQGTTVTVSS VL: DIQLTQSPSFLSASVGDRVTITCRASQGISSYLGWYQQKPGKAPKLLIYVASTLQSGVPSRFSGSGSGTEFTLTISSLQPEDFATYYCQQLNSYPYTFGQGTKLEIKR" measure_unit=% measured_value=116
binder="PR001159 (antibody, human IgG1, kappa, V domains shown, fully human IgG1/kappa; also called antibody No. (21)) VH: QVQLVESGGGVVQPGRSLRLSCEASGFTFSHYGMHWVRQAPGKGLEWVAVIWYDGIKTNYVESVKGRFTISRDNSKNTLNLQMNRLRAEDTAVYYCARDGGFGESNYYGLDVWGQGTTVTVSS VL: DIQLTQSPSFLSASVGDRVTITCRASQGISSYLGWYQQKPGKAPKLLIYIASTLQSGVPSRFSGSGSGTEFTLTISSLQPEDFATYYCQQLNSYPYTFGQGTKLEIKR" measure_unit=% measured_value=105
